Biological target: C-C chemokine receptor type 6 (Homo sapiens, UniProt P51684)
Sequence (P51684 whole entry): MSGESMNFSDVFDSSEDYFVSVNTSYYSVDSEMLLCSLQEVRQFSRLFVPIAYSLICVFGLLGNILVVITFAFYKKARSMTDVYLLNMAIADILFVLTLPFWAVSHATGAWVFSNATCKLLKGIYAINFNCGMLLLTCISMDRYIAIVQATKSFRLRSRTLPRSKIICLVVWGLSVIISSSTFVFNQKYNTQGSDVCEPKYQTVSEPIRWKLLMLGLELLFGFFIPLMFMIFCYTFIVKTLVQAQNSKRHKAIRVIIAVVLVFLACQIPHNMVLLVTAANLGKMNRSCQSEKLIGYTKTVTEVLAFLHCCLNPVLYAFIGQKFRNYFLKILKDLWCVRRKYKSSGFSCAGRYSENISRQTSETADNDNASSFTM
QUANTITY MEASURED: IC50

Prompt: What value of IC50 on C-C chemokine receptor type 6 (Homo sapiens, UniProt P51684) does `CC1=CCC[C@H]1NC(=O)Nc1ccc(Cl)c(S(=O)(=O)[C@@]2(C)CCOC2)c1O` have?
Completion: > 10 µM

###

Target: C-X-C chemokine receptor type 2 (Homo sapiens, UniProt P25025)
Sequence (P25025 whole entry): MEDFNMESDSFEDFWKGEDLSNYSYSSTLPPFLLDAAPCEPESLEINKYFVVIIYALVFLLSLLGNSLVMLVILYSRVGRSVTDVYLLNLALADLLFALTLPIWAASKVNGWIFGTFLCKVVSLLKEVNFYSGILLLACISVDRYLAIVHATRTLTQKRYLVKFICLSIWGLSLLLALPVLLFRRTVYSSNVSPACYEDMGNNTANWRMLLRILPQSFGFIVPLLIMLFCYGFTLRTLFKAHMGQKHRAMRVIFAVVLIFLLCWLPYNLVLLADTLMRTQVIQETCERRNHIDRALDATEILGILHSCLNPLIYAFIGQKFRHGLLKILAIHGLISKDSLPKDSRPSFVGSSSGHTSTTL
Assay: Antagonist activity at CXCR2 in human whole blood assessed as inhibition of GROalpha-stimulated CD11b upregulation preincubated for 15 mins followed by GROalpha stimulation measured after 15 mins by FITC-staining based FACS analysis
QUANTITY MEASURED: pIC50
Worth noting: pIC50 values are minus log10 of concentrations stated in mol/L.

Some compounds with recorded pIC50:
COMPOUND: CC1=CCC[C@H]1NC(=O)Nc1ccc(Cl)c(S(=O)(=O)C(C)(C)C)c1O
pIC50: 6.50
//
COMPOUND: CC1=CCC[C@H]1NC(=O)Nc1ccc(Cl)c(S(=O)(=O)[C@H]2C[C@H](N(C)C)C2)c1O
pIC50: 6.90

Prompt: Returns the measured pIC50 for the input compound. Input: `CC1=CCC[C@H]1NC(=O)Nc1ccc(Cl)c(S(=O)(=O)C(C)(C)CF)c1O`
Completion: 7.00

Prompt: What value of pIC50 has been reported for the following compound? `CC1=CCC[C@H]1NC(=O)Nc1ccc(Cl)c(S(=O)(=O)C2CCN(C3CCC3)CC2)c1O`
Completion: 6.30

Prompt: Would you mind telling me what pIC50 value was observed for COCC(C)S(=O)(=O)c1c(Cl)ccc(NC(=O)N[C@@H]2CCC=C2C)c1O (stereo not given in full) ?
Completion: 6.40
